# Measurement Target: cyclophilin B (CypB) (Homo sapiens (Human), UniProt P23284)
# Sequence (P23284 34-216): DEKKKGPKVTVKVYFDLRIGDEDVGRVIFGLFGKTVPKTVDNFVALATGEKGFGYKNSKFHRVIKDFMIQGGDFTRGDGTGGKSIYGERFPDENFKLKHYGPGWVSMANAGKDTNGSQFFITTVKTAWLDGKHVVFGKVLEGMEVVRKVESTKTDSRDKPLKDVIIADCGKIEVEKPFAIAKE
# Experimental Protocol: Inhibitor binding to cyclophilin proteins by SPR, CypB
# Parameters: unit not given here
# Experimental Setup: 1:1 binding model
Starred links: 1 amine or outer side, 2 acyl side, 3 side chain; linkers in the order of their positions; H or OH if unused. Non-standard residues stand in square brackets, D forms with d. Residues, ends and D or L forms follow the SMILES beside them. X4 = C[C@H](CS(C)(=O)=O)[C@@H](C(=O)[*:2])N(C)[*:1]; MeBmt = C/C=C/C[C@@H](C)[C@@H](O)[C@H](NC)C(=O)O; NMeL = CN[C@@H](CC(C)C)C(=O)O; NMeV = CN[C@H](C(=O)O)C(C)C; dNMeA = CN[C@H](C)C(=O)O; Abu = CC[C@H](N)C(=O)O
Observable: CypB Kd
One number for each entry.

Q: Can you share its CypB Kd? I mean this compound: C/C=C/C[C@@H](C)[C@@H](O)[C@H]1C(=O)N[C@@H](CC)C(=O)N(C)[C@H](C)C(=O)N(C)[C@@H]([C@H](C)CS(C)(=O)=O)C(=O)N[C@@H](C(C)C)C(=O)N(C)[C@@H](CC(C)C)C(=O)N[C@@H](C)C(=O)N[C@H](C)C(=O)N(C)[C@@H](CC(C)C)C(=O)N(C)[C@@H](CC(C)C)C(=O)N(C)[C@@H](C(C)C)C(=O)N1C [Compound 2.4] (cyclo(A[dA][NMeL][NMeL][NMeV][MeBmt][Abu][dNMeA][X4]V[NMeL]))
A: 0.6

----------
# Measurement Target: CypF (Homo sapiens (Human), UniProt P30405)
# Sequence (P30405 30-207): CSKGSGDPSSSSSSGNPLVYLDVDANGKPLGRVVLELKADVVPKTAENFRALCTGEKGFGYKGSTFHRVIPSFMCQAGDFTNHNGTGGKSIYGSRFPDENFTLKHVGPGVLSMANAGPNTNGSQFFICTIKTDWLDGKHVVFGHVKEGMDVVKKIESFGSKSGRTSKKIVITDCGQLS
# Experimental Protocol: Inhibitor binding to cyclophilin proteins by SPR, CypF
# Experimental Setup: 1:1 binding model
Starred links: 1 amine or outer side, 2 acyl side, 3 side chain; linkers in the order of their positions; H or OH if unused. Non-standard residues stand in square brackets, D forms with d. Residues, ends and D or L forms follow the SMILES beside them. X54 = CCOC(=O)N1CCN(C[C@@H](C)[C@@H](C(=O)[*:2])N(C)[*:1])CC1; X68 = C[C@H](CCN1CCC(C#N)CC1)[C@@H](C(=O)[*:2])N(C)[*:1]; MeBmt = C/C=C/C[C@@H](C)[C@@H](O)[C@H](NC)C(=O)O; NMeL = CN[C@@H](CC(C)C)C(=O)O; NMeV = CN[C@H](C(=O)O)C(C)C; dNMeA = CN[C@H](C)C(=O)O; Abu = CC[C@H](N)C(=O)O
Give CypF Kd for every item shown.

Please give CypF Kd, item by item, for the list that follows.
1. C/C=C/C[C@@H](C)[C@@H](O)[C@H]1C(=O)N[C@@H](CC)C(=O)N(C)[C@H](C)C(=O)N(C)[C@@H]([C@H](C)CN2CCN(C(=O)OCC)CC2)C(=O)N[C@@H](C(C)C)C(=O)N(C)[C@@H](CC(C)C)C(=O)N[C@@H](C)C(=O)N[C@H](C)C(=O)N(C)[C@@H](CC(C)C)C(=O)N(C)[C@@H](CC(C)C)C(=O)N(C)[C@@H](C(C)C)C(=O)N1C [Compound 2.5.31] (cyclo(A[dA][NMeL][NMeL][NMeV][MeBmt][Abu][dNMeA][X54]V[NMeL]))
2. C/C=C/C[C@@H](C)[C@@H](O)[C@H]1C(=O)N[C@@H](CC)C(=O)N(C)[C@H](C)C(=O)N(C)[C@@H]([C@H](C)CCN2CCC(C#N)CC2)C(=O)N[C@@H](C(C)C)C(=O)N(C)[C@@H](CC(C)C)C(=O)N[C@@H](C)C(=O)N[C@H](C)C(=O)N(C)[C@@H](CC(C)C)C(=O)N(C)[C@@H](CC(C)C)C(=O)N(C)[C@@H](C(C)C)C(=O)N1C [Compound 2.18.2] (cyclo(A[dA][NMeL][NMeL][NMeV][MeBmt][Abu][dNMeA][X68]V[NMeL]))

A:
1: 1.3 nM; 2: 0.6 nM

----------
# System: peripheral blood mononuclear cells (PBMC)
# Experimental Protocol: Anti-proliferative or immunosuppressive activity, BrdU incorporation in PHA-stimulated PBMC
# Assay type: cell-based
# Experimental Setup: PHA 3 μg/ml, 60 hour compound treatment; read-out: EMV PBMC IC50
pIC50: −log10 of the molar value. Starred links: 1 amine or outer side, 2 acyl side, 3 side chain; linkers in the order of their positions; H or OH if unused. Non-standard residues stand in square brackets, D forms with d. Residues, ends and D or L forms follow the SMILES beside them. X27 = C[C@H](COCC(=O)N1CCN(C2CCOCC2)CC1)[C@@H](C(=O)[*:2])N(C)[*:1]; X60 = C[C@H](CCCN1CC2CCC(C1)N2C)[C@@H](C(=O)[*:2])N(C)[*:1]; X11 = CCN1CCN(C[C@H](C)[C@@H](C(=O)[*:2])N(C)[*:1])CC1; X23 = COC1CN(C[C@@H](C)[C@@H](C(=O)[*:2])N(C)[*:1])C1; MeBmt = C/C=C/C[C@@H](C)[C@@H](O)[C@H](NC)C(=O)O; NMeL = CN[C@@H](CC(C)C)C(=O)O; NMeV = CN[C@H](C(=O)O)C(C)C; dNMeA = CN[C@H](C)C(=O)O; Abu = CC[C@H](N)C(=O)O
Label scheme for pIC50: lower than 5 is -1, 5 and above is 1.

>  <Compound>
C/C=C/C[C@@H](C)[C@@H](O)[C@H]1C(=O)N[C@@H](CC)C(=O)N(C)[C@H](C)C(=O)N(C)[C@@H]([C@H](C)CN2CC(OC)C2)C(=O)N[C@@H](C(C)C)C(=O)N(C)[C@@H](CC(C)C)C(=O)N[C@@H](C)C(=O)N[C@H](C)C(=O)N(C)[C@@H](CC(C)C)C(=O)N(C)[C@@H](CC(C)C)C(=O)N(C)[C@@H](C(C)C)C(=O)N1C [Compound 2.5.17] (cyclo(A[dA][NMeL][NMeL][NMeV][MeBmt][Abu][dNMeA][X23]V[NMeL]))

>  <Measurement Target>
peripheral blood mononuclear cells (PBMC)

>  <Cat>
-1

$$$$
>  <Compound>
C/C=C/C[C@@H](C)[C@@H](O)[C@H]1C(=O)N[C@@H](CC)C(=O)N(C)[C@H](C)C(=O)N(C)[C@@H]([C@H](C)COCC(=O)N2CCN(C3CCOCC3)CC2)C(=O)N[C@@H](C(C)C)C(=O)N(C)[C@@H](CC(C)C)C(=O)N[C@@H](C)C(=O)N[C@H](C)C(=O)N(C)[C@@H](CC(C)C)C(=O)N(C)[C@@H](CC(C)C)C(=O)N(C)[C@@H](C(C)C)C(=O)N1C [Compound 2.6.2] (cyclo([MeBmt][Abu][dNMeA][X27]V[NMeL]A[dA][NMeL][NMeL][NMeV]))

>  <Measurement Target>
peripheral blood mononuclear cells (PBMC)

>  <Cat>
-1

$$$$
>  <Compound>
C/C=C/C[C@@H](C)[C@@H](O)[C@H]1C(=O)N[C@@H](CC)C(=O)N(C)[C@H](C)C(=O)N(C)[C@@H]([C@@H](C)CN2CCN(CC)CC2)C(=O)N[C@@H](C(C)C)C(=O)N(C)[C@@H](CC(C)C)C(=O)N[C@@H](C)C(=O)N[C@H](C)C(=O)N(C)[C@@H](CC(C)C)C(=O)N(C)[C@@H](CC(C)C)C(=O)N(C)[C@@H](C(C)C)C(=O)N1C [Compound 2.17.2] (cyclo(A[dA][NMeL][NMeL][NMeV][MeBmt][Abu][dNMeA][X11]V[NMeL]))

>  <Measurement Target>
peripheral blood mononuclear cells (PBMC)

>  <Cat>
-1

$$$$

Q: State whether the measured pIC50 reaches 5, counting equality as reaching it, for C/C=C/C[C@@H](C)[C@@H](O)[C@H]1C(=O)N[C@@H](CC)C(=O)N(C)[C@H](C)C(=O)N(C)[C@@H]([C@H](C)CCCN2CC3CCC(C2)N3C)C(=O)N[C@@H](C(C)C)C(=O)N(C)[C@@H](CC(C)C)C(=O)N[C@@H](C)C(=O)N[C@H](C)C(=O)N(C)[C@@H](CC(C)C)C(=O)N(C)[C@@H](CC(C)C)C(=O)N(C)[C@@H](C(C)C)C(=O)N1C [Compound 2.19.3] (cyclo(A[dA][NMeL][NMeL][NMeV][MeBmt][Abu][dNMeA][X60]V[NMeL]))
A: 1

----------
# Measurement Target: organic anion transporting polypeptide 1B1 (OATP1B1) (Homo sapiens (Human), UniProt Q9Y6L6)
# Sequence (Q9Y6L6 whole entry): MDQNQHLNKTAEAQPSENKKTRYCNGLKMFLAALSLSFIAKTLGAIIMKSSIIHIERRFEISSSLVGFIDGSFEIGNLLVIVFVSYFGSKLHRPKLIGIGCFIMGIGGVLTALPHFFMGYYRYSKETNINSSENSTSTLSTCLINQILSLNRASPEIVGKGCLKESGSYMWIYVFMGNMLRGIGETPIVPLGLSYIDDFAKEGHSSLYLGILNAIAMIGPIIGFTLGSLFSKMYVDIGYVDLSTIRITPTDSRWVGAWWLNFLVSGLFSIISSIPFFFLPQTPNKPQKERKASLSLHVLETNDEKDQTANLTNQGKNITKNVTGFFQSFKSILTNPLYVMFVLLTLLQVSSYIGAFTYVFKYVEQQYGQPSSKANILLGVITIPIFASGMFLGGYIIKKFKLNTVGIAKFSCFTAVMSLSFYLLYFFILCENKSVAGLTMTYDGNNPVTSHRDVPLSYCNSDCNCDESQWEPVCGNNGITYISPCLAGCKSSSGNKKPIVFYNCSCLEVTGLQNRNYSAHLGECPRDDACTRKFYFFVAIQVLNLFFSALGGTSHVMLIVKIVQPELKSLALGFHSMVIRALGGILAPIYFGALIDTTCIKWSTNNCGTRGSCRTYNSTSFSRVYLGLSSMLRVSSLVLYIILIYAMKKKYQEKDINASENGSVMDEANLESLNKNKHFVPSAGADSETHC
# Experimental Protocol: OATP assay in CHO-OATP1B1 cells;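 further: inhibition of probe substrate uptake into the cells, ten minutes exposure, accumulated substrate read by fluorescence once cells were lysed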
Starred links: 1 amine or outer side, 2 acyl side, 3 side chain; linkers in the order of their positions; H or OH if unused. Non-standard residues stand in square brackets, D forms with d. Residues, ends and D or L forms follow the SMILES beside them. X20 = C[C@H](CCCN1CCOCC1)[C@@H](C(=O)[*:2])N(C)[*:1]; X76 = CO[C@H](CN1CCOCC1)[C@@H](C(=O)[*:2])N(C)[*:1]; MeBmt = C/C=C/C[C@@H](C)[C@@H](O)[C@H](NC)C(=O)O; NMeL = CN[C@@H](CC(C)C)C(=O)O; NMeV = CN[C@H](C(=O)O)C(C)C; dNMeA = CN[C@H](C)C(=O)O; Abu = CC[C@H](N)C(=O)O
Observable: IC50 (nM)
Answers are plain numbers, in nM.

Solved entries:
>  <Molecule>
C/C=C/C[C@@H](C)[C@@H](O)[C@H]1C(=O)N[C@@H](CC)C(=O)N(C)[C@H](C)C(=O)N(C)[C@@H]([C@@H](CN2CCOCC2)OC)C(=O)N[C@@H](C(C)C)C(=O)N(C)[C@@H](CC(C)C)C(=O)N[C@@H](C)C(=O)N[C@H](C)C(=O)N(C)[C@@H](CC(C)C)C(=O)N(C)[C@@H](CC(C)C)C(=O)N(C)[C@@H](C(C)C)C(=O)N1C [Compound 2.21.1] (cyclo(A[dA][NMeL][NMeL][NMeV][MeBmt][Abu][dNMeA][X76]V[NMeL]))

>  <Unit>
nM

>  <IC50>
900

$$$$
>  <Molecule>
C/C=C/C[C@@H](C)[C@@H](O)[C@H]1C(=O)N[C@@H](CC)C(=O)N(C)[C@H](C)C(=O)N(C)[C@@H]([C@H](C)CCCN2CCOCC2)C(=O)N[C@@H](C(C)C)C(=O)N(C)[C@@H](CC(C)C)C(=O)N[C@@H](C)C(=O)N[C@H](C)C(=O)N(C)[C@@H](CC(C)C)C(=O)N(C)[C@@H](CC(C)C)C(=O)N(C)[C@@H](C(C)C)C(=O)N1C [Compound 2.19.1] (cyclo([MeBmt][Abu][dNMeA][X20]V[NMeL]A[dA][NMeL][NMeL][NMeV]))

>  <Unit>
nM

>  <IC50>
6900

$$$$

Q: Can you share its IC50? I mean this molecule: C/C=C/C[C@@H](C)[C@@H](O)[C@H]1C(=O)N[C@@H](CC)C(=O)N(C)[C@H](C)C(=O)N(C)[C@@H]([C@H](C)CCCN2CCN(CC)CC2)C(=O)N[C@@H](C(C)C)C(=O)N(C)[C@@H](CC(C)C)C(=O)N[C@@H](C)C(=O)N[C@H](C)C(=O)N(C)[C@@H](CC(C)C)C(=O)N(C)[C@@H](CC(C)C)C(=O)N(C)[C@@H](C(C)C)C(=O)N1C (stereo in doubt) [Compound 2.19.4]
A: 2600

Where do these numbers come from? They come from patent US9566312B2.
